Reported z-score values are given for each entry in this list.
Assay: MM1S myeloma cell viability, profiling panel, resazurin fluorescence, basal, 24 h, PK04 Diversity Set (AID 1174);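 also: MM1S multiple myeloma cell line; test concentration not given here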
Conditions: higher = more signal, called active from +8 up or from −8 down
Write the value as a bare number.

Problem: Give the measured z-score for `COCCOC(=O)N1C(=O)[C@@]2(c3cc(C#CC4=CCCCC4)ccc31)[C@H](c1ccc(OCCO)cc1)N1[C@H](c3ccccc3)[C@H](c3ccccc3)OC(=O)[C@H]1[C@@H]2C(=O)NC[C@H](O)c1ccccc1`
Result: -0.363

---

Reported composite z-score values are given for each entry in this list.
Assay: small-molecule microarray binders of probe aEGFR, primary screen, biochemical, biotinylated probe, 635/667 nm fluorescence (AID 1097);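 also: probe is a biotinylated anti-EGFR antibody binding compounds printed on slides; score combines fluorescence near 667 nm and signal to noise of each spot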
Conditions: higher = more signal
Write the value as a bare number.

INSERT INTO measurements (molecule, measured_endpoint, reported_value) VALUES
  ('CCCNC(=O)[C@@H]1c2ccccc2C(=O)N(C(C)C)[C@H]1c1ccc(CO)cc1', 'composite z-score', -0.196);

Problem: Give the measured composite z-score for Cc1cc(C)c(C(O)C2C=CC3C(=O)NC(=O)C3N2Nc2ccc(Cl)cc2Cl)c(C)c1 (stereo not drawn)
Result: -0.0581

Problem: Give the measured composite z-score for `CO[C@H]1O[C@H](CO)[C@@H](OC(=O)Nc2ccc3c(c2)OCO3)[C@H](OC(=O)c2cc3ccccc3[nH]2)[C@H]1OC(=O)c1cc2ccccc2[nH]1`
Result: -0.0828

---

System: wheat germ agglutinin (Triticum aestivum), Alexa647-labelled
Assay: wheat germ agglutinin binders on compound microarrays, profiling panel, artefact control for SMM control-protein annotation, biochemical, small-molecule microarray, 635/667 nm fluorescence (AID 1140);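 also: score merges 667 nm feature emission with signal to noise over triplicate slides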
Conditions: WGA-A647 binding, 635 nm fluorescence, higher = more signal
Decision: composite z-score >= 0.6 yields Y, all other cases yield N.

INSERT INTO measurements (molecule, label_class) VALUES
  ('COC(=O)[C@@]1(Cc2ccc(F)cc2)[C@H]2c3cc(C(=O)N(C)C)n(CCc4ccc(O)c(OC)c4)c3C[C@H]2CN1C(=O)c1ccccc1', 'N'),
  ('COC(=O)c1ccc([C@H](NC(=O)c2ccco2)[C@]2(C)C[C@H]2C2CCCCC2)cc1', 'Y'),
  ('CC(C)OC(=O)C=C1C[C@@H](c2ccc(C(F)(F)F)cc2)O[C@@H](c2ccc(C(F)(F)F)cc2)O1', 'Y'),
  ('CC(C)C(=C=CC[C@H](O)c1ccc(OCCO)cc1)C[C@H](O)c1ccccn1', 'N'),
  ('O=C1O[C@H](c2ccccc2)[C@H](c2ccccc2)N2[C@H]1[C@@H](C(=O)NC[C@H](O)c1ccccc1)[C@]1(C(=O)Nc3ccc(C#CCCO)cc31)[C@H]2c1ccc(OCCO)cc1', 'Y');

Problem: I'd appreciate it if you could say whether `COCCOC(=O)N1C(=O)[C@@]2(c3cc(C#CC4=CCCCC4)ccc31)[C@H](c1ccccc1OCCO)N1[C@H](c3ccccc3)[C@H](c3ccccc3)OC(=O)[C@H]1[C@@H]2C(=O)N1CCCCCCC1` has composite z-score at least equal to 0.6.
Result: N

Problem: I'd appreciate it if you could say whether `COc1ccc([Si](C)(C)[C@@H]2[C@@H](CCO)O[C@]3(C(=O)N(Cc4ccc(N5CCCCC5=O)cc4)c4ccccc43)[C@H]2C)cc1` has composite z-score at least equal to 0.6.
Result: Y

Problem: I'd appreciate it if you could say whether `COCCOC(=O)N1C(=O)[C@@]2(c3cc(C#CC4=CCCCC4)ccc31)[C@H](c1ccc(OCCO)cc1)N1[C@H](c3ccccc3)[C@H](c3ccccc3)OC(=O)[C@H]1[C@@H]2C(=O)N1CCN(c2ncccn2)CC1` has composite z-score at least equal to 0.6.
Result: N

Problem: I'd appreciate it if you could say whether CCCCC(O)C1C=CC2C(=O)N(c3ccccc3)C(=O)C2N1Nc1ccc(C(C)C)cc1 (centres undefined) has composite z-score at least equal to 0.6.
Result: N
